This collection of values is drawn from patent US20230357429A1.

# Lookup of reported pEC50 keyed by entry
biological target: T1, Peptide-33 (cysteine pairing not given here; also: biotinylated, site not given here); assay: ELISA, Fab on captured biotin-peptide
T1 peptide: PDFCYMYNWPVCVT
Where no end group is shown, it is not given here.
To interpret pEC50, take it as minus log10 of a concentration measured in moles per litre.

Problem: Can you share its pEC50? I mean this binder: TBD-11 (HC R98A) (Fab, V domains shown, Fab; also called HC R98A mutant) VH: QVQLQQSGSELKKPGASVKVSCKASGYTFTNYGMNWVKQAPGQGLKWMGWINTYTGEPTYTDDFKGRFAFSLDTSVSTAYLQISSLKADDTAVYFCAAGGFGSSYWYFDVWGQGSLVTVSS VL: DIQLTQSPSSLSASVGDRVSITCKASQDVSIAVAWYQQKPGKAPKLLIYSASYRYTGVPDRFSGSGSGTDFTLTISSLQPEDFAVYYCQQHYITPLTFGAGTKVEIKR
Solution: 6.84

Problem: Can you share its pEC50? I mean this binder: TBD-22 (HC D109A) (Fab, V domains shown, Fab; also called HC D109A mutant) VH: QVQLQQSGSELKKPGASVKVSCKASGYTFTNYGMNWVKQAPGQGLKWMGWINTYTGEPTYTDDFKGRFAFSLDTSVSTAYLQISSLKADDTAVYFCARGGFGSSYWYFAVWGQGSLVTVSS VL: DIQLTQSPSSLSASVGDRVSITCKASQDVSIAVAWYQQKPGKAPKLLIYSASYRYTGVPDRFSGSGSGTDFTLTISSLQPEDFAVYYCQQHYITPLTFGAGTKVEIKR
Solution: 8.82

Here's the next entry for you.
Problem: Can you share its pEC50? I mean this binder: TBD-17 (HC S104A) (Fab, V domains shown, Fab; also called HC S104A mutant) VH: QVQLQQSGSELKKPGASVKVSCKASGYTFTNYGMNWVKQAPGQGLKWMGWINTYTGEPTYTDDFKGRFAFSLDTSVSTAYLQISSLKADDTAVYFCARGGFGSAYWYFDVWGQGSLVTVSS VL: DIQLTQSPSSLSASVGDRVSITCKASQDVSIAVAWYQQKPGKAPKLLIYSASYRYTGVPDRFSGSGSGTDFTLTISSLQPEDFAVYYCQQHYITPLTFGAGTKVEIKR
Solution: 7.62
